- EXPERIMENTAL_SYSTEM: Induced myeloid leukemia cell differentiation protein Mcl-1 (Homo sapiens) (UniProt Q07820)
- Sequence (Q07820 whole entry, looked up): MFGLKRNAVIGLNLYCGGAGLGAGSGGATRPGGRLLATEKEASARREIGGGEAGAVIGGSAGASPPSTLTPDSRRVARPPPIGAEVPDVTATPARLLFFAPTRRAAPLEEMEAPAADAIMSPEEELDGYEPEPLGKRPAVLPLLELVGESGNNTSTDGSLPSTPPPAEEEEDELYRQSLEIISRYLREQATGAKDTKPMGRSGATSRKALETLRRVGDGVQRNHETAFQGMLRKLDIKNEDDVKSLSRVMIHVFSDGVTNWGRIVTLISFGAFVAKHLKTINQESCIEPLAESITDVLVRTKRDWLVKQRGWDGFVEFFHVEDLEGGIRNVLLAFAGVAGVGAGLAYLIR
- RUN_DESCRIPTION: MCL1-BIM peptide interaction disruptors – biochemical, fluorescence polarization, primary screen (AID 2057);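 also: 0% = DMSO wells and 100% = unlabeled Bim-BH3 peptide control; higher means more loss of mP so more displacement of Bim peptide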
- CONDITION_LABEL: GST-MCL1 / FITC-Bim-BH3 fluorescence polarization; at 10.9 µM; active compounds read high
Screen size: about 320,000 compounds; about 2,100 (0.66%) were called active. The sample as a whole holds a higher share of actives than the screen did.
REPORTED_METRIC: inhibition (%)
Response body: numeric value in %, unit text excluded.

Which inhibition value is on record for CN(c1ccccc1)c1ccc([N+](=O)[O-])c2nonc12 ?
-24.9

Which inhibition value is on record for C=CCN1C(=O)C2(C(C(=O)OCC)=C(N)Oc3c2c(=O)oc2ccccc32)c2ccccc21 (stereo not given) ?
1.78

Which inhibition value is on record for COc1ccc(CN2C(=O)NC(=O)/C(=C\c3ccc(OC)c(OC)c3OC)C2=O)cc1 ?
-3.16

Which inhibition value is on record for CCN(CC)C(=O)Oc1ccc(NC(=O)N2CCOCC2)cc1 ?
3.93

Which inhibition value is on record for Cc1cccc(OP(=O)(Oc2cccc(C)c2)OC(c2ccccc2)C(F)(F)F)c1 (stereo not given) ?
2.04
